Data origin: PubChem BioAssay (NCI)

System: HS 578T breast
Assay summary: NCI tumour cell line growth inhibition, 48 h
Measure: TGI

[
  {
    "Compound": "Cc1ccc2c(/C=C/C(=O)c3cc(CN4CCOCC4)c(O)c4nc(C)ccc34)cc(CN3CCOCC3)c(O)c2n1",
    "Target system": "HS 578T breast",
    "TGI": "> 100 µM"
  },
  {
    "Compound": "C=C1C(=O)O[C@H]2[C@H]1CC/C(COC(=O)/C=C/c1cccnc1)=C\\CC[C@@]1(C)O[C@@H]21",
    "Target system": "HS 578T breast",
    "TGI": "36 µM"
  },
  {
    "Compound": "C[C@@H](Oc1cc(-c2cnn(C3CCNCC3)c2)cnc1N)c1c(Cl)ccc(F)c1Cl",
    "Target system": "HS 578T breast",
    "TGI": "6.25 µM"
  },
  {
    "Compound": "N#CCN(Cc1ccccc1)[C@H]1CCC[C@]1(O)/C=C/c1ccc2c(c1)OCO2",
    "Target system": "HS 578T breast",
    "TGI": "43 µM"
  },
  {
    "Compound": "C[C@@H]1C(=O)O[C@@H]2C[C@@]1(C)[C@@H]1C(=O)C3(O)OC14C2(C)OC(=O)[C@@]4(O)CCC1C3C(O)C=C2CC=CC(=O)[C@@]21C (stereo partly drawn)",
    "Target system": "HS 578T breast",
    "TGI": "50.7 µM"
  }
]

Consider the compound `Nc1nc([O-])c([I+]c2ccccc2)c(=O)[nH]1` and give its measured TGI.
> 100 µM

// repeat for CC1=C(C(=O)Nc2ccc(F)c(Cl)c2)C(c2cccc(O)c2)NC(=S)N1 (stereo not drawn) and report
47 µM

And what about the compound `COc1ccccc1-c1n[nH]c(-c2ccccc2O)n1` ?
> 100 µM

Please answer likewise for `C=C(CN1CCc2ccccc2C1)c1ccc(/C=C/C(=O)Nc2ccccc2N)cc1`
> 100 µM

// same read-out, input: `COc1ccc(/C=C/C(=O)/C=C(/C=C/c2ccc(OC)c(OC)c2)OB(F)F)cc1OC`
8.15 µM

Now the same for `NCCCn1c2c(c3ccccc3c1=O)C(=O)c1cc3c(cc1-2)OCO3`
4.31 µM

What do we get for `N#Cc1c(-c2cccc(Br)c2)cc(-c2ccc(Cl)cc2)nc1N` ?
43.1 µM

`COc1ccc(/C=C/C(=N/NC(=O)N/N=C(/C=C/c2ccc(OC)cc2)C(C)C)C(C)C)cc1` ?
> 100 µM

====

System: SR leukemia
Assay summary: NCI tumour cell line growth inhibition, 48 h
Measure: TGI

Known TGI results, listed for orientation:
[
  {
    "Compound": "CC(=O)N1c2ccccc2C2=NN=C(N(C)C)SC21 (centres undefined)",
    "TGI": "21.2 µM"
  },
  {
    "Compound": "CN(OC(=O)CC(=O)c1ccccc1)C(=O)Cc1ccccc1",
    "TGI": "> 100 µM"
  }
]

Entry `COc1cccc(-c2nc(-c3ccc(NS(=O)(=O)c4ccccc4)cc3)[nH]c2-c2ccnc(Br)c2)c1` has what TGI?
> 100 µM

Would you kindly repeat that for `O=C(Oc1cccc(Nc2ncnc3ccccc23)c1)c1ccccc1Cl` ?
> 100 µM

====

Test system: PC-3 prostate
Assay summary: NCI tumour cell line growth inhibition, 48 h
Measure: TGI (µM)
Number only, in µM; omit the unit.

[
  {
    "Molecule": "N#Cc1c(-c2cccc(Br)c2)cc(-c2ccc(Cl)cc2)nc1N",
    "Measurement units": "µM",
    "TGI": 71.3
  },
  {
    "Molecule": "O=c1oc2ccccc2c(Cl)c1Cl",
    "Measurement units": "µM",
    "TGI": 24.5
  }
]

// next entry
Endpoint output: TGI of `N#CCN(Cc1ccccc1)[C@H]1CCC[C@]1(O)/C=C/c1ccc2c(c1)OCO2` . Value?
35.7
